From: paper PMC11816975

Examples of substances with documented pIC50 follow.
target.or.system: ACE-1 enzyme (Homo sapiens, UniProt P12821)
Sequence (P12821 30-1306): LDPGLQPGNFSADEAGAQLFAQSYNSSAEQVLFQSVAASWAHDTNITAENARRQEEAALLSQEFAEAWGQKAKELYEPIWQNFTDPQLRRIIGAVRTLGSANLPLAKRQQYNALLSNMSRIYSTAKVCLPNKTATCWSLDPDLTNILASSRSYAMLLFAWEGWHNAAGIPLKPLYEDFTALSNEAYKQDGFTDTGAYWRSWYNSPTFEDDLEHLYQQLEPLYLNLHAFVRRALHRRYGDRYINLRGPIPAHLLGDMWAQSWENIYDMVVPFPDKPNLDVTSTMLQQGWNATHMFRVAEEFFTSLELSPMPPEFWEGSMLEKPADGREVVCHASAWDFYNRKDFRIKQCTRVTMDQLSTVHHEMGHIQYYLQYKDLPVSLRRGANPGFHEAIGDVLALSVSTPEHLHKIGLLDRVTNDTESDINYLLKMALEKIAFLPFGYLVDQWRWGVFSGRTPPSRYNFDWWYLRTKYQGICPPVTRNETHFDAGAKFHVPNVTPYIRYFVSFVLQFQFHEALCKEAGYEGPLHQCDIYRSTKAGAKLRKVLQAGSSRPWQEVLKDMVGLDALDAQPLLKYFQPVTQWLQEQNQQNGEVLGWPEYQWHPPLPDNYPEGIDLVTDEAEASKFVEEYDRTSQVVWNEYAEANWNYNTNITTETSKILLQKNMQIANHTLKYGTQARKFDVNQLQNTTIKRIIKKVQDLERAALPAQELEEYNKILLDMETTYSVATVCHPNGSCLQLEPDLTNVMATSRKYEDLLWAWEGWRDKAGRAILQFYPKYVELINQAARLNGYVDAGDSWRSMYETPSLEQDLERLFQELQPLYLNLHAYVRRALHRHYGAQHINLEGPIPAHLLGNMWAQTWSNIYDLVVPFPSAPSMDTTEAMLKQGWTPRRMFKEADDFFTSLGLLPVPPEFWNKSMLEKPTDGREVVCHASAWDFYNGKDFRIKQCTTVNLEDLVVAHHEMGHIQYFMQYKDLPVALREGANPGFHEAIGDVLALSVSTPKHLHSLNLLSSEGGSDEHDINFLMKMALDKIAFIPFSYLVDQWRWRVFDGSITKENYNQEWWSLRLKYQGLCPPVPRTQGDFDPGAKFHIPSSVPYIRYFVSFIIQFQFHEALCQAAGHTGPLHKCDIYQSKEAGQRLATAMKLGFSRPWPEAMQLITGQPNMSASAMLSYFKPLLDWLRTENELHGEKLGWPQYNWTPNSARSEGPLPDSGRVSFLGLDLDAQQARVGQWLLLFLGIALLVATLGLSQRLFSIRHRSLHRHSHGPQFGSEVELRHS
test: ACE-1 inhibition assay (colorimetric kit)
pIC50: −log10 of the molar value. Where no end group is shown, it is not given here.
observation.type: pIC50

| substance | observation.type | qualifier | experimental.result |
| --- | --- | --- | --- |
| WKLLSKAQEKFGKNKSR-NH2 [bLF-268-284, WKLLSKAQEKFGKNKSR-NH2] | pIC50 | < | 4.31 |
| GRRRRSVQWCA-NH2 [rhLF-1-11, GRRRRSVQWCA-NH2] | pIC50 | = | 4.24 |
| WNLLRQAQEKFGKDKSP-NH2 [nhLF-268-284, WNLLRQAQEKFGKDKSP-NH2] | pIC50 | = | 4.59 |
| AKCAKFQRNMKKVRG-NH2 [aLF-17-31, AKCAKFQRNMKKVRG-NH2] | pIC50 | = | 4.51 |
